System: 699152-130-R-J1-PDC complex spheroid viability;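 further: spheroids exposed to agents for 7 days before viability reading; percent of DMSO vehicle control viability so 100% = vehicle and 0% = no viable signal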
Experiment: Anticancer human tumor 699152-130-R-J1-PDC patient-derived pancreatic carcinoma cell line growth inhibition [POLQ]
Conditions: second compound 0.0316 µM; first compound 0.001 µM; stronger effect = lower value
QUANTITY NAME: viability, T/C (%)
Reply with just the number (in %).

// below: answered molecules
MOLECULE	MEASURED TARGET	viability, T/C, %
Cn1ncnc1[C@H]1c2n[nH]c(=O)c3cc(F)cc(c23)N[C@@H]1c1ccc(F)cc1 + Cc1cccc(N(C)C(=O)C2C(O)CCN2c2nc(C)cc(C(F)(F)F)c2C#N)c1	699152-130-R-J1-PDC complex spheroid viability	87.7
CC[C@@]1(O)C(=O)OCc2c1cc1n(c2=O)Cc2cc3c(CN(C)C)c(O)ccc3nc2-1 + COC1C(OC(N)=O)C(O)C(Oc2ccc3c(O)c(NC(=O)c4ccc(O)c(CC=C(C)C)c4)c(=O)oc3c2C)OC1(C)C	699152-130-R-J1-PDC complex spheroid viability	101

Next, consider the following molecule.
Determine from records and report viability, T/C for Cn1ncnc1[C@H]1c2n[nH]c(=O)c3cc(F)cc(c23)N[C@@H]1c1ccc(F)cc1 + COC1C(OC(N)=O)C(O)C(Oc2ccc3c(O)c(NC(=O)c4ccc(O)c(CC=C(C)C)c4)c(=O)oc3c2C)OC1(C)C 86.2
